- test system: T1, recombinant human CTGF‐His tag (connective tissue growth factor) (human, UniProt P29279 27-349, labeled with fluorescent dye Monolith RED‐NHS)
- T1 construct: connective tissue growth factor (CTGF/CCN2), human, recombinant; also called CCN2; rhCTGF‐His tag protein; source: bought: Novoprotein (C15W), purified
- T1 sequence (looked up): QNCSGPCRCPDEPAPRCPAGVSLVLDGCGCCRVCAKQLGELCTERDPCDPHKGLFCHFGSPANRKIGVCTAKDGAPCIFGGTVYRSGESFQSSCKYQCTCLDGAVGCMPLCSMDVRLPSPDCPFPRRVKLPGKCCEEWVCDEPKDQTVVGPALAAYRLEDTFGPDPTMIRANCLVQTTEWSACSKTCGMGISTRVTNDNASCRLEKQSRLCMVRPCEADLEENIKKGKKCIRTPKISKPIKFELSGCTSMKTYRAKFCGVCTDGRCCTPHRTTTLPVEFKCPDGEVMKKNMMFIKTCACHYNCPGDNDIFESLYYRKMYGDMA
- protocol notes: MST; proteins labeled with Monolith RED-NHS; 2 × 10^-6 M protein (10 µL) mixed with variable concentrations of peptide in PBST (10 µL, PBS with 0.05% Tween-20); Monolith NT.115
- condition context: both partners purified
No end group written: not given here.

binder: CPSAAHYL (not fully specified (C-terminus)) [CL8‐M6P3]
Kd / µM: 13.4
